# target_or_system: Factor X (FX), P00742
# Sequence (P00742 whole entry, looked up): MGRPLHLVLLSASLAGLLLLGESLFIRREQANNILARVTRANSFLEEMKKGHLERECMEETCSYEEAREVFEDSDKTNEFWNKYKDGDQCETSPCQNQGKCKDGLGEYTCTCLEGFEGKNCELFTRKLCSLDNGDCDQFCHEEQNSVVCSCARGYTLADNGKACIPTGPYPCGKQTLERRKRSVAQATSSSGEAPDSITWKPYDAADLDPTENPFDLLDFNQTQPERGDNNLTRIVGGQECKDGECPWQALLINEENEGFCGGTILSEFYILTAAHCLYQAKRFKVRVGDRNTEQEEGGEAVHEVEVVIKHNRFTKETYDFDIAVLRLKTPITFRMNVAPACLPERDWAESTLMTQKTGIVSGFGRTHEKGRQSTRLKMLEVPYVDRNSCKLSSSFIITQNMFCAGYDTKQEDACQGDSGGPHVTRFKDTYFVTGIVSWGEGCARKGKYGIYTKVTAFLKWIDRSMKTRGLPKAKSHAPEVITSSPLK
readout_label: kcat/KM (M⁻¹ s⁻¹)

INSERT INTO assay_data (protein, readout_label, observed_result) VALUES
  ('FIXa variant D104N/K106S/R318Y/R338E/R403E/E410N (protein) chain 1: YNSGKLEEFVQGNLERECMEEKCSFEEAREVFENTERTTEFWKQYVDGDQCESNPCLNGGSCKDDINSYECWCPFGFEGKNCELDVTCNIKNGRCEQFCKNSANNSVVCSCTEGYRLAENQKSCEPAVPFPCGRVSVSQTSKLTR chain 2: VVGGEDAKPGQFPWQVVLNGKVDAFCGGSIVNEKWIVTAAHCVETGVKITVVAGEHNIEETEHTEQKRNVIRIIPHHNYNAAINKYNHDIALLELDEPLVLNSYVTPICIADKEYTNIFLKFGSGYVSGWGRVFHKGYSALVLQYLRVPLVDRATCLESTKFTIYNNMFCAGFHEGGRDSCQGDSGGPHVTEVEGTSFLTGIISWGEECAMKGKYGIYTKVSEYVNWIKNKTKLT', 'kcat/KM', '1.7e+08');

Values were extracted from patent US20210238260.
